- Tgt: canine TRPM8 (Canis lupus familiaris, UniProt Q1A7N1)
- Sequence (Q1A7N1 1-1104): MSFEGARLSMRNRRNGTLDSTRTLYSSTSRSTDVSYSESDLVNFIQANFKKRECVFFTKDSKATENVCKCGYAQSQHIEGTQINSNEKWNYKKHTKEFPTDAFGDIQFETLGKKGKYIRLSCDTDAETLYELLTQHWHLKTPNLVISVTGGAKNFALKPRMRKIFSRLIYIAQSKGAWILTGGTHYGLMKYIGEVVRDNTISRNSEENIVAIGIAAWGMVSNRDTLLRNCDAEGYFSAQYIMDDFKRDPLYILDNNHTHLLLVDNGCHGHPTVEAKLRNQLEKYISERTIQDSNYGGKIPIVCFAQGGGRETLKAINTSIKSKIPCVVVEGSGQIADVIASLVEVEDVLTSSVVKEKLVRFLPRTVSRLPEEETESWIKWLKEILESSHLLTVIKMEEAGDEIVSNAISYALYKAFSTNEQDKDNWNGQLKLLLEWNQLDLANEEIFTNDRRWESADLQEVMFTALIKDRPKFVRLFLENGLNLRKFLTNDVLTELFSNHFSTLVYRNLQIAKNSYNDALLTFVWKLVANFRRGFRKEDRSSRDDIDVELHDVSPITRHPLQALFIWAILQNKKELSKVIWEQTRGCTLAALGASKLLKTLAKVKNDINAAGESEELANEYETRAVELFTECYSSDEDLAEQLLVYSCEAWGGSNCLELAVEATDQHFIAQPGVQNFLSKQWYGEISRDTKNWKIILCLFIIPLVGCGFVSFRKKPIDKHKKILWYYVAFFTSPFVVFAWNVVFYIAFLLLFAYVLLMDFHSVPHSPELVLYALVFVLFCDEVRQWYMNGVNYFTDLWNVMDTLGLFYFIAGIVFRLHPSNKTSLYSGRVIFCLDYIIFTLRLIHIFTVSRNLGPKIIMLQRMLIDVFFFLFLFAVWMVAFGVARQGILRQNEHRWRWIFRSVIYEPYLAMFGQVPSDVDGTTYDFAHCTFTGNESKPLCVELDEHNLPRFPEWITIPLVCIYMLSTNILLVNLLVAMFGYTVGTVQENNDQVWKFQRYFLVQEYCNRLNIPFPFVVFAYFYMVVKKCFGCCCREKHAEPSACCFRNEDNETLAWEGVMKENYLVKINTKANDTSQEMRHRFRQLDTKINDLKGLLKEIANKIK
- Measurement Protocol: In Vitro Canine TRPM8 Functional Assay (icilin-induced intracellular Ca2+ fluorescence, FLIPR/FDSS)
- Condition Summary: icilin challenge (~80% maximal response); HEK293 cells stably expressing canine TRPM8; eight-point dose-response
Counter-ions that a name gives are not always drawn.
Observed Property: IC50 (nM)

* FC(F)(F)Oc1ccccc1-c1ccc2[nH]c(/C=C/C3CCCCC3)nc2c1 [Compound 1, hydrochloride salt] | 14
* Cc1ccsc1-c1ccc2[nH]c(C=CC3CCCC3)nc2c1 | 13
* COc1cccc(F)c1-c1ccc2[nH]c(C=CC3CC=C(F)CC3)nc2c1 (stereo not drawn) [Compound 41, hydrochloride salt] | 6

[a] FC(F)(F)c1cccc(C(F)(F)F)c1-c1ccc2[nH]c(/C=C/C3CCCCC3)nc2c1
[b] Fc1cccc(Cl)c1-c1ccc2[nH]c(C=CC3CCCCC3)nc2c1
[c] Fc1ccccc1-c1ccc2[nH]c(C=CC3CCCCC3)nc2c1
Descending sort on IC50 required. Answer format: the labels, in the requested order.
c, a, b
(c: 14 nM, a: 9 nM, b: 6 nM)
